assay text: estimation of in vivo stability: incubation of peptides with fetal calf serum
Type: in vitro ADME
measurement setup: fetal calf serum, 37° C., 6 hours; read-out: stable at 6 hours
Peptide text beside a SMILES is read from it.
Property: remaining at 6 h; scope: individual compounds
// return numeric value only (unit: %, not printed)

CC[C@H](C)[C@H](N)C(=O)N[C@@H](CCCNC(=N)N)C(=O)N[C@H](C(=O)N[C@H](CCCCN)C(=O)N[C@H](C(=O)N[C@H](CCCNC(=N)N)C(=O)N[C@H](C(=O)N[C@@H](CCCCN)C(=O)O)[C@@H](C)CC)[C@@H](C)CC)[C@@H](C)CC [IRIkIrIK] (HELM PEPTIDE1{I.R.I.[dK].I.[dR].I.K}$$$$V2.0; N-terminus and C-terminus assumed): 100

Now look at this entry.
Ask | Quick check: remaining at 6 h of CC[C@H](C)[C@H](NC(=O)[C@H](CCCNC(=N)N)NC(=O)[C@H](NC(=O)[C@H](CCCCN)NC(=O)[C@H](Cc1ccc(O)cc1)NC(=O)[C@@H](N)CCCNC(=N)N)C(C)C)C(=O)N[C@@H](CCCCN)C(=O)O [RYK-KS, RYKvRIK] (HELM PEPTIDE1{R.Y.K.[dV].R.I.K}$$$$V2.0; N-terminus and C-terminus assumed) ?
Reply | 100

Taken from patent US10174078B2.
